Quick list: Asu per 10' cycle per entry.
Assay: Prolonged piperidine treatment of VKDGYI peptide resin (aspartimide formation, Asp-Gly motif)
Conditions: VKDGYI; Oxyma Pure -

# compound, Asu per 10' cycle
measured = [
    ("CCCC(CCC)(CCC)OC(=O)C[C@H](NC(=O)OCC1c2ccccc2-c2ccccc21)C(=O)O [Php]", 0.2),
    ("CC(C)(C)OC(=O)C[C@H](NC(=O)OCC1c2ccccc2-c2ccccc21)C(=O)O [tBu, Fmoc-Asp(OtBu)-OH, reference compound]", 2.3),
    ("CCC(CC)(CC)OC(=O)C[C@H](NC(=O)OCC1c2ccccc2-c2ccccc21)C(=O)O [Epe]", 0.4),
    ("CCC(C)(CC)OC(=O)C[C@H](NC(=O)OCC1c2ccccc2-c2ccccc21)C(=O)O [Mpe, Fmoc-Asp(OMpe)-OH, reference compound]", 0.8),
]

---

Assay: Prolonged piperidine treatment of VKDRYI peptide resin (aspartimide formation, Asp-Arg motif)
Format: physicochemical
Conditions: VKDRYI, 110 Fmoc removal cycles
Quick list: piperidides [%] per entry.
observable: piperidides [%] (%)

# compound, observable, numeric_readout
data = [
    ("CCCC(CCC)(CCC)OC(=O)C[C@H](NC(=O)OCC1c2ccccc2-c2ccccc21)C(=O)O [Php]", "piperidides [%]", 5.5),
    ("CCCCC(CCCC)(CCCC)OC(=O)C[C@H](NC(=O)OCC1c2ccccc2-c2ccccc21)C(=O)O [Bno]", "piperidides [%]", 3.6),
    ("CC(C)(C)OC(=O)C[C@H](NC(=O)OCC1c2ccccc2-c2ccccc21)C(=O)O [tBu, Fmoc-Asp(OtBu)-OH, reference compound]", "piperidides [%]", 58.4),
    ("CCC(C)(CC)OC(=O)C[C@H](NC(=O)OCC1c2ccccc2-c2ccccc21)C(=O)O [Mpe, Fmoc-Asp(OMpe)-OH, reference compound]", "piperidides [%]", 28.9),
    ("CCC(CC)(CC)OC(=O)C[C@H](NC(=O)OCC1c2ccccc2-c2ccccc21)C(=O)O [Epe]", "piperidides [%]", 9.4),
]

---

Assay: Prolonged piperidine treatment of VKDRYI peptide resin (aspartimide formation, Asp-Arg motif)
Type: physicochemical
Conditions: target peptide VKDRYI, 110 Fmoc removal cycles

# compound, unit_of_measure, target [%]
data = [
    ("CCCCC(CCCC)(CCCC)OC(=O)C[C@H](NC(=O)OCC1c2ccccc2-c2ccccc21)C(=O)O [Bno]", "%", 93.8),
    ("CCC(C)(CC)OC(=O)C[C@H](NC(=O)OCC1c2ccccc2-c2ccccc21)C(=O)O [Mpe, Fmoc-Asp(OMpe)-OH, reference compound]", "%", 64.2),
    ("CCCC(CCC)(CCC)OC(=O)C[C@H](NC(=O)OCC1c2ccccc2-c2ccccc21)C(=O)O [Php]", "%", 91.3),
    ("CC(C)(C)OC(=O)C[C@H](NC(=O)OCC1c2ccccc2-c2ccccc21)C(=O)O [tBu, Fmoc-Asp(OtBu)-OH, reference compound]", "%", 24.7),
    ("CCC(CC)(CC)OC(=O)C[C@H](NC(=O)OCC1c2ccccc2-c2ccccc21)C(=O)O [Epe]", "%", 86.7),
]

---

Quick list: piperidides [%] per entry.
Test: Prolonged piperidine treatment of VKDNYI peptide resin (aspartimide formation, Asp-Asn motif)
Format: physicochemical
Details: VKDNYI; piperidine, 110 Fmoc removal cycles

# compound, unit_of_measure, piperidides [%]
data = [
    ("CCC(C)(CC)OC(=O)C[C@H](NC(=O)OCC1c2ccccc2-c2ccccc21)C(=O)O [Mpe, Fmoc-Asp(OMpe)-OH, reference compound]", "%", 37.5),
    ("CC(C)(C)OC(=O)C[C@H](NC(=O)OCC1c2ccccc2-c2ccccc21)C(=O)O [tBu, Fmoc-Asp(OtBu)-OH, reference compound]", "%", 79.0),
    ("CCC(CC)(CC)OC(=O)C[C@H](NC(=O)OCC1c2ccccc2-c2ccccc21)C(=O)O [Epe]", "%", 16.0),
    ("CCCCC(CCCC)(CCCC)OC(=O)C[C@H](NC(=O)OCC1c2ccccc2-c2ccccc21)C(=O)O [Bno]", "%", 3.6),
    ("CCCC(CCC)(CCC)OC(=O)C[C@H](NC(=O)OCC1c2ccccc2-c2ccccc21)C(=O)O [Php]", "%", 8.2),
]
